Value source: the supplement of paper PMC12370961

Recorded measurements of differential drug sensitivity score, one per entry
# System: CDS-ZH002 direct (CIC-DUX4 sarcoma cells right after isolation)
# Test Description: differential drug sensitivity score (dDSS) relative to sarcoma reference cohort mean DSS (DSS units (0-100 scale difference)); higher = more selective sensitivity than reference sarcomas
# Condition Info: exposure time: 72 h; concentration range: 10-10000 nM
Enter a number only.

Please review the following examples before continuing.
>>> observed_measurement("N#Cc1ccc2[nH]c(O)c(-c3ccc(CN4CCOCC4)cn3)c2c1")
-0.1
>>> observed_measurement("Cn1nccc1Nc1nccc(-c2ccn([C@H](CO)c3ccc(Cl)c(F)c3)c(=O)c2)n1")
-2.3
>>> observed_measurement("COc1nc(N)nc2c1ncn2[C@@H]1O[C@H](CO)[C@@H](O)[C@@H]1O")
-2.5

differential drug sensitivity score reported for this molecule CC(C)(C)c1nc(-c2cccc(NS(=O)(=O)c3c(F)cccc3F)c2F)c(-c2ccnc(N)n2)s1 : -1.2

differential drug sensitivity score reported for this molecule C[C@H](Nc1ncnc2nc[nH]c12)c1cc2cccc(Cl)c2c(=O)n1-c1ccccc1 : 0.6

differential drug sensitivity score reported for this molecule CC(C)CCN1c2nc(Nc3cc(F)c(O)c(F)c3)ncc2N(C)C(=O)C1C (stereo not drawn) : -1.7

differential drug sensitivity score reported for this molecule O=C1NC(=O)[C@@H](c2cn3c4c(cccc24)CCC3)[C@@H]1c1c[nH]c2ccccc12 [Tivantinib] : -1.2

differential drug sensitivity score reported for this molecule CNC(=O)c1ccccc1Sc1ccc2c(/C=C/c3ccccn3)n[nH]c2c1 : -0.9

* * *

# Tested on: CDS-ZH002 direct
# Test Description: differential drug sensitivity score (dDSS) relative to sarcoma reference cohort mean DSS (DSS units (0-100 scale difference)); higher = more selective sensitivity than reference sarcomas
# Condition Info: exposure time: 72 h; concentration range: 10-10000 nM
Property Label: differential drug sensitivity score
Enter a number only.

>>> observed_measurement("CN1CCN(c2ccc3nc(-c4c(N)c5c(F)cccc5[nH]c4=O)[nH]c3c2)CC1 [Dovitinib]")
-1.6
>>> observed_measurement("O=P1(NCCCl)OCCCN1CCCl (centres undefined) [Ifosfamide]")
-1
>>> observed_measurement("CCN1CCN(c2ccc(Nc3cc(N(C)C(=O)Nc4c(Cl)c(OC)cc(OC)c4Cl)ncn3)cc2)CC1 [Infigratinib]")
2.3
>>> observed_measurement("O=C(/C=C\\n1cnc(-c2cc(C(F)(F)F)cc(C(F)(F)F)c2)n1)NNc1ccccn1 [Verdinexor]")
0
>>> observed_measurement("C[C@]12C=CC(=O)C=C1CC[C@@H]1[C@@H]2C(=O)C[C@@]2(C)[C@H]1CC[C@]2(O)C(=O)CO [Prednisone]")
-0.5
>>> observed_measurement("COC1=CC(c2cc3ccccc3[nH]2)=N/C1=C\\c1[nH]c(C)cc1C [Obatoclax]")
4.4

differential drug sensitivity score reported for this molecule CO[C@@H](C)Cn1c(=O)n(C)c2cnc3ccc(-c4cncc(C(C)(C)O)c4)cc3c21 [Samotolisib] : 4.5

differential drug sensitivity score reported for this molecule O=P1(N(CCCl)CCCl)NCCCO1 (centres undefined) [Cyclophosphamide] : -0.3

differential drug sensitivity score reported for this molecule C#Cc1cccc(Nc2ncnc3cc(OCCOC)c(OCCOC)cc23)c1 [Erlotinib] : -1.1

* * *

Recorded measurements of differential drug sensitivity score, one per entry
# Test system: CDS-ZH002 direct
# Test Description: differential drug sensitivity score (dDSS) relative to sarcoma reference cohort mean DSS (DSS units (0-100 scale difference)); higher = more selective sensitivity than reference sarcomas
# Condition Info: exposure time: 72 h; concentration range: 10-10000 nM
Enter a number only.

Please review the following examples before continuing.
>>> observed_measurement("Cc1nc(NC(=O)N2CCC[C@H]2C(N)=O)sc1-c1ccnc(C(C)(C)C(F)(F)F)c1 [Alpelisib]")
-2
>>> observed_measurement("C=CC(=O)N1CCC[C@@H](n2nc(-c3ccc(Oc4ccccc4)cc3)c3c(N)ncnc32)C1 [Ibrutinib]")
-2.1
>>> observed_measurement("Nc1cccc2c1C(=O)N(C1CCC(=O)NC1=O)C2=O (stereo not drawn) [Pomalidomide]")
-1.4
>>> observed_measurement("NS(=O)(=O)OC[C@@H]1C[C@@H](n2ccc3c(N[C@H]4CCc5ccccc54)ncnc32)C[C@@H]1O [Pevonedistat]")
7.6
>>> observed_measurement("CCN1CCN(Cc2ccc(-c3cc4c(N[C@H](C)c5ccccc5)ncnc4[nH]3)cc2)CC1 [AEE788]")
-1.2
>>> observed_measurement("CS(=O)(=O)c1ccc(C(=O)Nc2ccc(Cl)c(-c3ccccn3)c2)c(Cl)c1 [Vismodegib]")
1.1
>>> observed_measurement("O=C(O)C(=O)O.[NH-][C@@H]1CCCC[C@H]1[NH-].[Pt+2] [Oxaliplatin]")
7.7

// switching to the query compound
differential drug sensitivity score reported for this compound O=C(CCCCCCC(=O)Nc1ccccc1)NO [Vorinostat] : -0.2
